- Tested on: Rattus norvegicus
- Protocol Details: Oral bioavailability in rat at 5 mg/kg
- Type: ADME, organism-based
- Measurement Setup: in vivo
Documented F across a set of molecules
Please state the value followed by its unit.

> print(dat)
                            chemical.smiles  experimental.readout  reported
1  Nc1ncnc2c1C(=O)N(c1ccc([C@H]3CC[C@H](CC(=O)N4CCOCC4)CC3)cc1)CCO2                     F       77%

Exam item: I would be grateful if you could share the reported F for `N#CC[C@H]1CC[C@H](c2ccc(N3CCOc4ncnc(N)c4C3=O)cc2)CC1` .
Marked response: 85%

Exam item: Please do the same for `Cc1noc(C[C@H]2CC[C@H](c3ccc(N4CCOc5ncnc(N)c5C4=O)cc3)CC2)n1` as well.
Marked response: 53%

Exam item: Please do the same for `CC(C)(O)C[C@H]1CC[C@H](c2ccc(N3CCOc4ncnc(N)c4C3=O)cc2)CC1` as well.
Marked response: 100%

Exam item: Please do the same for `NC(=O)C[C@H]1CC[C@H](c2ccc(N3CCOc4ncnc(N)c4C3=O)cc2)CC1` as well.
Marked response: 88%

---

- Protocol Details: Apparent clearance in human liver microsomes
- Assay type: ADME, Microsome
- Measurement Setup: read-out: CLH(app)
Experimental Readout: CLint scaled (mL/min/kg)
The answer is to be given in mL/min/kg; state only the numeric part.

Some molecules with recorded CLint scaled:
> print(dat)
                            chemical.smiles  experimental.readout  reported
1  Cc1noc(CC[C@H]2CC[C@H](c3ccc(N4CCOc5ncnc(N)c5C4=O)cc3)CC2)n1          CLint scaled        82
2  CC(C)C(=O)N1CCC(c2ccc(N3CCOc4ncnc(N)c4C3=O)cc2)CC1          CLint scaled        11
3  Nc1ncnc2c1C(=O)N(c1ccc([C@H]3CC[C@H](CC(=O)NC4CCCC4)CC3)cc1)CCO2          CLint scaled        39

Exam item: I would be grateful if you could share the reported CLint scaled for `Nc1ncnc2c1C(=O)N(c1ccc(C3CCN(C(=O)c4ccon4)CC3)cc1)CCO2` .
Marked response: 12

Exam item: Please do the same for `CN1CCN(C(=O)C[C@H]2CC[C@H](c3ccc(N4CCOc5ncnc(N)c5C4=O)cc3)CC2)CC1=O` as well.
Marked response: 9

---

- Protocol Details: Volume of distribution at steady state in rat at 1 mg/kg, iv
- Format: ADME, organism-based
- Set-up: dose 1 mg/kg, route intravenous
- Measurement Setup: in vivo, read-out: Vdss
Experimental Readout: Vd (L/kg)
The answer is to be given in L/kg; state only the numeric part.

Some compounds with recorded Vd:
> print(dat)
                                   compound  reported
1  N#CC[C@H]1CC[C@H](c2ccc(N3CCOc4ncnc(N)c4C3=O)cc2)CC1         2
2  Nc1ncnc2c1C(=O)N(c1ccc([C@H]3CC[C@H](CC(=O)O)CC3)cc1)CCO2 [PF-04620110]       1.8
3  CC(C)(O)C[C@H]1CC[C@H](c2ccc(N3CCOc4ncnc(N)c4C3=O)cc2)CC1       1.3
4  Cc1noc(C[C@H]2CC[C@H](c3ccc(N4CCOc5ncnc(N)c5C4=O)cc3)CC2)n1       1.2
5  Nc1ncnc2c1C(=O)N(c1ccc([C@H]3CC[C@H](CC(=O)N4CCOCC4)CC3)cc1)CCO2       1.2

Please look at the following compound next.
Exam item: I would be grateful if you could share the reported Vd for `NC(=O)C[C@H]1CC[C@H](c2ccc(N3CCOc4ncnc(N)c4C3=O)cc2)CC1` .
Marked response: 1.6
